assay_target: human NTCP (Homo sapiens)
Sequence (Q14973 1-349): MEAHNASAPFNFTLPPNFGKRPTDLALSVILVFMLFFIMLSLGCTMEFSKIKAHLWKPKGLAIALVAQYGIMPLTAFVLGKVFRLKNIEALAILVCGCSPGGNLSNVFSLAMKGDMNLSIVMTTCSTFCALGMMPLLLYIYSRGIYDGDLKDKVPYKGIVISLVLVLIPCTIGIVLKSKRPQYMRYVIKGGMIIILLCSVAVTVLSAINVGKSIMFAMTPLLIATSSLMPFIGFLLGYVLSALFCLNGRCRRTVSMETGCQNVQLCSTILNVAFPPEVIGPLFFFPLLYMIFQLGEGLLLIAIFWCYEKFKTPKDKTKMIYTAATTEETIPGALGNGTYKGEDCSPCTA
assay_remarks: Screening taurocholate uptake assay (96-well, [14C]taurocholate, 10 µM drug)
measurement_context: Prestwick library screen, taurocholate uptake, 10 µM drug
Structures can show the parent of a compound that is named as a salt.
Binary classification by B-score functional assay, with -0.04 as an inclusive lower bound for true; all other cases are false.

Would you please look over these solved cases?
CC(=O)Nc1ccc(CC(=O)O)cc1: false
Cc1nnc(SCC2=C(C(=O)O)N3C(=O)[C@@H](NC(=O)Cn4cnnn4)[C@H]3SC2)s1 [Cefazolin sodium salt]: true
CC(=O)N(CC(O)CO)c1c(I)c(C(=O)NCC(O)CO)c(I)c(C(=O)NCC(O)CO)c1I (stereo not shown) [Iohexol]: true
CCC1(c2ccccc2)C(=O)NCNC1=O: true
CN(C)C(=N)N=C(N)N [Metformin hydrochloride]: false
CC(CCc1ccc(O)cc1)NCCc1ccc(O)c(O)c1 (stereo not shown) [Dobutamine hydrochloride]: true

Q: Given CN1C(C(=O)Nc2ccccn2)=C(O)c2ccccc2S1(=O)=O , state whether its B-score functional assay is at least -0.04.
A: true

Q: Given the entry CN(C)CCC=C1c2ccccc2C=Cc2ccccc21 [Cyclobenzaprine hydrochloride] , answer whether its B-score functional assay meets or surpasses -0.04.
A: true

###

assay_target: UniProtKB Q14973
Sequence (Q14973 1-349): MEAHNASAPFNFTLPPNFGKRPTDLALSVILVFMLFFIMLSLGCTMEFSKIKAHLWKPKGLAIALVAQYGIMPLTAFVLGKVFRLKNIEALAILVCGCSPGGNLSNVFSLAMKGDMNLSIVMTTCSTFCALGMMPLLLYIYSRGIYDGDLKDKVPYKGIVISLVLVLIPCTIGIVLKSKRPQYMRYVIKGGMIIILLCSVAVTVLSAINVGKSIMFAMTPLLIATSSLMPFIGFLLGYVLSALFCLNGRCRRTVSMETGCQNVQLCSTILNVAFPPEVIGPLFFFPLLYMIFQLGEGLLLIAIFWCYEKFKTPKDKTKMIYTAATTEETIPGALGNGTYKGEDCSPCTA
assay_remarks: Screening taurocholate uptake assay (96-well, [14C]taurocholate, 10 µM drug)
measurement_context: ranking over the functional and the binding screening assay
Counter-ions that a name gives are not always drawn.
Use Met when the recorded Ranking score is no lower than 200; use Not met when it is lower.

Example entries begin here.
COC(=O)C1=C(C)NC(C)=C(C(=O)OC(C)C)C1c1cccc2nonc12 (stereo not drawn) [Isradipine]: Not met
Clc1ccc(Nc2nnc(Cc3ccncc3)c3ccccc23)cc1 [Vatalanib]: Not met

Q: Does the compound CC[C@H]1OC(=O)[C@H](C)[C@@H](O[C@H]2C[C@@](C)(OC)[C@@H](O)[C@H](C)O2)[C@H](C)[C@@H](O[C@@H]2O[C@H](C)C[C@H](N(C)C)[C@H]2O)[C@](C)(O)C[C@@H](C)/C(=N\OCOCCOC)[C@H](C)[C@@H](O)[C@]1(C)O [Roxithromycin] have recorded Ranking score that is 200 or more?
A: Met

Q: Does the reported Ranking score for CC1(C)[C@@H](OC(=O)CCC(=O)O)CC[C@]2(C)[C@H]3C(=O)C=C4[C@@H]5C[C@@](C)(C(=O)O)CC[C@]5(C)CC[C@@]4(C)[C@]3(C)CC[C@@H]12 [Carbenoxolone disodium salt] fall at or above the 200 mark?
A: Not met

Q: Is reported Ranking score greater than or equal to 200 here: COc1cc2nc(N(C)CCCNC(=O)C3CCCO3)nc(N)c2cc1OC (stereo not drawn) [Alfuzosin hydrochloride]
A: Met

Q: Reported Ranking score at or above 200? CCOC(=O)n1ccn(C)c1=S [Carbimazole]
A: Not met
